Origin of the recorded values: ChEMBL document CHEMBL1201862

Test system: A549
Assay Method Text: NCI tumour cell line growth inhibition, 48 h
The source made the active and inactive calls. Cut-off read from the data, not from the text of the source: active = GI50 up to about 1.1 µM and inactive = higher.
# reported GI50; entries follow

The cases that follow already have their GI50 on record.
Compound	Experimental Value
CC1C(=O)N=C2C(=CN(Cc3ccccc3)c3ccccc32)C(=O)N1C (stereo not given)	> 100 µM (inactive)
Cc1ccc(C2CC(c3cccc([N+](=O)[O-])c3)=Nc3ccccc3S2)cc1 (stereo not given)	48.8 µM (inactive)
CN(C)c1ccc(C2CC(=O)C(C#N)=C(c3ccccc3)NN2C)cc1 (stereo not given)	8.04 µM (inactive)
COc1ccc(/C=C2\CSC/C(=C\c3ccc(OC)c(OC)c3OC)C2=O)c(OC)c1OC	> 100 µM (inactive)
COc1ccc(-c2nc(SCC(=O)N/N=C/c3ccc(N(C)C)cc3)[nH]c2-c2ccc(OC)cc2)cc1	17.6 µM (inactive)

Lookup result for COC(=O)[C@@H]1C=C[C@H](OC2OC(COC(C)=O)C(OC(C)=O)C(OC(C)=O)C2OC(C)=O)n2c(=O)n(-c3ccccc3)c(=O)n21 (stereo not given in full) ; measured GI50: 14.7 µM (inactive)

Briefly, GI50 measured for O=C(Cc1ccc(F)cc1)NC1=C(Cl)C(=O)c2ccccc2C1=O : 3.62 µM (inactive)

Per the record, COc1cc(Cl)c(CC(=O)c2c[nH]c3ccccc23)cc1OC has GI50 of > 100 µM (inactive)

* * *

Tested on: HOP-62
Assay Method Text: NCI tumour cell line growth inhibition, 48 h
The source made the active and inactive calls. Rule as the data show it: active = GI50 up to about 1.1 µM and inactive = higher.
Reported Metric: GI50

Compound	GI50
CCc1n[nH]c(=O)n1N1C(=O)CCC1=O	> 100 µM (inactive)

GI50 for CC(=O)OC1CC2CCN3C(=O)c4cc5c(cc4[C@H](C1OC(C)=O)C23)OCO5 (stereo not given in full) is > 100 µM (inactive)

Entry COc1cccc2c1C1=CC(=O)CCC1C(C)(C)O2 (stereo not given) ; GI50 = > 100 µM (inactive)

CN(CCN1C(=O)c2cc([N+](=O)[O-])cc3cc([N+](=O)[O-])cc(c23)C1=O)CCN1C(=O)c2cc([N+](=O)[O-])cc3cc([N+](=O)[O-])cc(c23)C1=O yielded GI50 of 2.65 µM (inactive)

Item: COc1ccc(O)c(/C=N\Nc2ccccc2)c1 | GI50: 44.7 µM (inactive)

* * *

Test system: EKVX
Assay Method Text: NCI tumour cell line growth inhibition, 48 h
Active and inactive are the calls of the source. No stated cut-off is given here; in the data, active = GI50 up to about 1.1 µM and inactive = higher.
Reported Metric: GI50

Molecule	System Tested	GI50
O=[As](O)(O)c1ccc(/N=N/c2ccc(O)cc2)cc1	EKVX	> 100 µM (inactive)
N#Cc1ccccc1NC(=O)/C(=N\Nc1ccc([N+](=O)[O-])cc1)C1C(=O)NC(=O)NC1=O	EKVX	> 100 µM (inactive)
CC(C)NC(=O)OCc1c(COC(=O)NC(C)C)c(-c2ccc[n+](COC(=O)C3CCCCC3)c2)n2c1CCC2	EKVX	> 100 µM (inactive)

Lab note: Oc1ccc2c(c1)OCC1(O)Cc3cc(O)c(O)cc3C21 (stereo unspecified) gave GI50 of 27 µM (inactive)

CCON=C1C(C)(C)C(C)(C)C(C)(C)C1(C)C has a reported GI50 of > 100 µM (inactive)

// GI50 lookup, molecule = O=C(NCc1cccc(C(F)(F)F)c1)c1cc2sccc2nc1C(F)(F)F , result: > 100 µM (inactive)

* * *

Test system: SF-268
Assay Method Text: NCI tumour cell line growth inhibition, 48 h
Active and inactive are the calls of the source. No stated cut-off is given here; in the data, active = GI50 up to about 1.1 µM and inactive = higher.
GI50 reference

These recorded examples may help you get a feel for the data.
Compound	Experimental Value
COc1ccc(SCc2cc(OC)c(OC)c(OC)c2)cc1OC	> 100 µM (inactive)
CC(C)(CCCCC(C)(C)[N+](C)(C)C)[N+](C)(C)C	> 100 µM (inactive)

Reported GI50 for N#Cc1c2ccc([N+](=O)[O-])cc2c(=O)n2c1sc1ccc(C(F)(F)F)cc12 was > 100 µM (inactive)

The reported GI50 of the compound Cc1cn(C2CC(OC(=O)c3ccc(Cl)cc3)C(COC(=O)c3ccc(Cl)cc3)O2)c(=O)[nH]c1=O (stereo not given) was > 100 µM (inactive)

// GI50 lookup, compound = Cc1cc2c(cc1C)[n+]([O-])c(C(=O)CC(=O)C(=O)Nc1ccccc1C(C)C)c(C)[n+]2[O-] , result: > 100 µM (inactive)

For record COC1=C(C)C(=O)c2c(c(COC(N)=O)c3n2CC(OC(C)=O)C3OC(C)=O)C1=O (stereo not given) the listed GI50 is 0.0766 µM (active)

Looking up O=C1CCC(NC(=O)Cc2ccc(O)cc2)C(=O)N1 (stereo not given) , I found its GI50 recorded as > 2500 µM (inactive)

For c1ccc2c(c1)Nc1c3ccccc3nc3cccc-2c13 the compound record lists GI50 as 1.49 µM (inactive)

GI50 reading for Nc1ncnc2c1ccn2C/C=C/CO : > 100 µM (inactive)

Entry COC(=O)c1ccccc1N(C(=O)c1ccccc1)c1ccccc1C , GI50 reported as > 100 µM (inactive)

Just so you know, measured GI50 for CCN(CC)c1ccc(/N=N/c2ccc(-c3nc4ccc[n+](C)c4o3)cc2)cc1 came out at 12.6 µM (inactive)

compound O=C(c1ccco1)N1CCCN(C(=O)c2ccco2)C1=S , GI50 observed: > 100 µM (inactive)

So for COC(=O)/C=C\C(C#N)(C#N)/N=C/c1sccc1C , the logged GI50 turned out to be 12.3 µM (inactive)

Entry under test: CN1CN(c2ccccc2)C2(CCN(CCCSc3ccccc3NC(=O)/C=C/c3ccccc3)CC2)C1=O . Its GI50 was 4.21 µM (inactive)

Measured GI50 of CN1C(=O)[C@H](c2c[nH]c3ccccc23)[C@H](c2c[nH]c3ccccc23)C1=O : 33.3 µM (inactive)

Reported GI50 ( CC1=C(Nc2c(C)cc(O)cc2O)C(=O)C=c2oc3c(c21)C(C)=C(Nc1c(C)cc(O)cc1O)C(=O)C=3 ) = 45.5 µM (inactive)

Item: COC(=O)NCCc1n[nH]c2c1C(=O)C=C(OC)C2=O | GI50: 18.5 µM (inactive)

Entry under test: Cc1cccc(/C=N/NC(=S)N2CCCCCC2)n1 . Its GI50 was < 0.01 µM (active)

Just so you know, measured GI50 for Cc1cc2[nH]c3c(C#N)c4c(c(=O)n3c2cc1C)CCCC4 came out at 79.3 µM (inactive)

get_value(item= Cc1cc(Cc2c(F)c(F)c(C(c3cc(C)no3)c3c(F)c(F)c(F)c(F)c3F)c(F)c2F)on1 (stereo not given) , readout=GI50) returns 78.3 µM (inactive)

Looking up COC(=O)NCCc1n[nH]c2c1C(=O)C=C(Nc1ccccc1)C2=O , I found its GI50 recorded as 26 µM (inactive)

GET /value?item= O=[N+]([O-])c1ccc(CSCc2ccc(Cl)cc2)cc1 &field=GI50 returns > 100 µM (inactive)

Record CN(C)C(=S)SN(C)C(=O)Nc1ccccc1 , field GI50: 38.4 µM (inactive)

Notebook: COc1ccc(/C=C(\C(C)=O)C(=O)Nc2ccccc2)cc1 , GI50 read as > 100 µM (inactive)

In plain terms, O=S(=O)(c1ccc(-c2nnc(-c3ccc(F)cc3)o2)cc1)c1ccc(-c2nnc(-c3ccc(F)cc3)o2)cc1 has a documented GI50 of > 100 µM (inactive)

* * *

System: Malme-3M
Assay Method Text: NCI tumour cell line growth inhibition, 48 h
Calls of active or inactive are those of the source. Rule as the data show it: active = GI50 up to about 1.1 µM and inactive = higher. Square brackets hold non-standard residues; d marks the D form. Peptide text beside a SMILES is read from it. * marks the point of attachment. Boc = CC(C)(C)OC(=O)*; Lac = C[CH](O)C(=O)O; OBn = c1ccc(CO*)cc1
Select the matching outcome among active, inactive

Solved entries:
Molecule	Discrete Label
COC(=O)c1cc2c(=O)n(C)c3ccccc3n2c1C(=O)OC	inactive
COc1ccc2c(c1)N=C1CSC(c3c(Cl)cccc3[N+](=O)[O-])N1C2 (stereo not given)	inactive
CC1CCC2C(C)C3C(CC4C5CC=C6CC(OC7OC(CO)C(O)C(OC8OC(CO)C(O)C(O)C8O)C7OC7OC(C)C(O)C(O)C7O)CCC6(C)C5CCC43C)N2C1 (stereo not given)	inactive
CC[C@H]1CC(=O)c2c(cc3c(c2O)C(=O)c2ccccc2C3=O)[C@@]1(C#N)C(=O)OC(C)(C)C	inactive
CC(=O)OC1CC2CCN3C(=O)c4cc5c(cc4[C@H](C1OC(C)=O)C23)OCO5 (stereo not given in full)	inactive

Q: Which outcome did this test record for the molecule CN(C(=O)Cc1cc(Cl)c(Cl)cc1NC(=O)CN)[C@H]1CCCC[C@@H]1N1CCCC1 ?
Ans: inactive

Q: Please state the recorded outcome for this molecule: CC(OC(=O)C(Cc1ccccc1)NC(=O)C(Cc1ccccc1)NC(=O)OC(C)(C)C)C(=O)OCc1ccccc1 (stereo not drawn) (Boc-Phe-Phe-[Lac]-OBn; configuration not given here)
Ans: inactive

Q: For CC[C@@]1(O)C(=O)OCc2c1cc1n(c2=O)Cc2cc3ccccc3nc2-1 , which call appears in the assay record?
Ans: active

Q: Please state the recorded outcome for this molecule: CCOc1ccc2c(C)cc(=O)oc2c1
Ans: inactive

Q: For COc1ccc(/C=C2\CSC/C(=C\c3ccc(OC)c(OC)c3OC)C2=O)c(OC)c1OC , which call appears in the assay record?
Ans: inactive

Q: I'd appreciate the recorded outcome for COC(=O)C1C=CCON2CCc3c(n(S(=O)(=O)c4ccccc4)c4ccccc34)C12 (stereo not given) from this test.
Ans: inactive

Q: Hey, what did the test say about C=C1C(=O)OC2C1C(OC(=O)/C(=C/C)COC(C)=O)CC1(CO1)C1C(OC(=O)/C(=C/C)CO)C=C(C)C21 (stereo not given) ?
Ans: inactive

Q: Outcome logged for O=c1nc(NC2CCCCO2)ccn1CCO (stereo not given) in this assay:
Ans: inactive

Q: Answer briefly: the call reported for CN(C)C(=O)N1N[C@H](c2ccccc2)[C@@H]1c1ccccc1 in this assay.
Ans: inactive
